method.description: chemical genetic growth profiling, strain panel (AID 1159580);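 further: tested at 20 µM; growth read once vehicle control cultures reached saturation at 30 °C; 1 = growth at the plate median or of vehicle wells; lower values mean less growth of the strain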
condition.set: S. cerevisiae deletion strains, growth OD, locus YIR030C, strain dcg1, hits give low values
In all, about 5,500 compounds went through this assay and about 2,000 (36%) were called active. About 18% were inconclusive and are not listed. Some of the results follow.
measure: normalized growth
Note: the reply should be a number with no unit written.

Example entries begin here.
compound: O=[N+]([O-])O[C@H]1CO[C@H]2[C@@H]1OC[C@H]2O[N+](=O)[O-]
normalized growth: 1.01

compound: CC1(C)C2CC[C@]3(C)C(C(=O)C=C4[C@@H]5C[C@@](C)(C(=O)O)CC[C@]5(C)CC[C@]43C)[C@@]2(C)CC[C@@H]1OC(=O)CCC(=O)O (stereo partly specified)
normalized growth: 0.98

compound: COc1cc(O)c2c(=O)cc(C)oc2c1CC=C(C)C
normalized growth: 0.92

compound: C=CC1=C(C(=O)O)N2C(=O)[C@@H](NC(=O)/C(=N/O)c3csc(N)n3)[C@H]2SC1
normalized growth: 0.989

compound: COc1ccc([C@@H]2CC(=O)c3c(O)cc(O)cc3O2)cc1O
normalized growth: 1.01

Output measured normalized growth for this item: `NC(=O)c1ncn([C@@H]2O[C@H](CO)[C@@H](O)[C@H]2O)c1O`
1.02

Look up and state reported normalized growth for `NC(N)=NOCC[C@H](N)C(=O)O`
0.98

====

method.description: chemical genetic growth profiling, strain panel (AID 1159580)
condition.set: S. cerevisiae deletion strains, growth OD, locus YGL078C, strain dbp3, hits give low values
Out of some 5,500 compounds screened, about 2,000 (36%) were called active. Inconclusive results (about 18%) are left out. Some of the results follow.
Recorded normalized growth values for a group of compounds are listed next.
API note: the answer field is a bare number with no unit suffix.

compound: CC[C@@H](CO)NCCN[C@@H](CC)CO
normalized growth: 1
//
compound: COC(=O)C1[C@H]2C[C@H]3c4[nH]c5ccccc5c4CCN3C[C@@H]2CC[C@@H]1O (stereo partly specified)
normalized growth: 1.01
//
compound: Cc1ccc(C(=O)C(C)CN2CCCCC2)cc1 (stereo unspecified)
normalized growth: 1.01
//
compound: CC(=O)O[C@H]1C(=O)[C@@]2(C)C([C@H](OC(=O)c3ccccc3)[C@]3(O)C[C@H](OC(=O)[C@H](O)[C@@H](NC(=O)c4ccccc4)c4ccccc4)C(C)=C1C3(C)C)[C@]1(OC(C)=O)CO[C@@H]1C[C@@H]2O (stereo partly specified)
normalized growth: 1.02
//
compound: CC1(C)S[C@@H]2[C@H](NC(=O)[C@H](NC(=O)N3CCNC3=O)c3ccccc3)C(=O)N2C1C(=O)O (stereo partly specified)
normalized growth: 0.989

Determine its reported normalized growth: C[N+](C)(C)CCOP(=O)([O-])OP(=O)(O)OC[C@H]1OC(n2ccc(N)nc2=O)[C@H](O)[C@@H]1O (stereo partly specified)
0.998

Specify normalized growth for CC(=O)[C@H]1CCC2C3C[C@H](C)C4=CC(=O)CC[C@]4(C)C3[C@@H](O)C[C@@]21C (stereo partly specified) and stop.
0.991

Read the entry `NC(N)=NOCC[C@H](N)C(=O)O` and write its reported normalized growth.
0.994

Give the reported value of normalized growth for this record: C=C1CC[C@H](O)C/C1=C/C=C1\CCC[C@]2(C)C([C@H](C)/C=C/[C@H](C)C(C)C)CC[C@@H]12 (stereo partly specified)
0.972

Write down normalized growth measured for item COc1ccc2c(c1)C1(C)CCC(=O)CC1CC2 (stereo unspecified)
0.982

Provide one value: measured normalized growth of `CCCCOc1ccc(OCCCN2CCOCC2)cc1`
0.966

Provide only the value of recorded normalized growth for CC1(O)/C=C/C=C(\CO)C2CC(C)(C)C2(O)CC1 (stereo unspecified)
1

Determine from records and report normalized growth for `COC(=O)c1c(Cl)c(Cl)c(C(=O)OC)c(Cl)c1Cl`
1.01

# return recorded normalized growth for input CCCCCC(C)N (stereo unspecified)
0.995

Tell me its normalized growth given CCCCCC(=O)O[C@]1(C(C)=O)CCC2C3CCC4=CC(=O)CC[C@]4(C)C3CC[C@@]21C (stereo partly specified) as the entry.
1.01

Note down normalized growth recorded for `COc1ccc(C(=O)c2ccccc2)c(O)c1`
0.911

For `CC(=O)OCC(CCn1cnc2cnc(N)nc21)COC(C)=O` , write its normalized growth.
0.967

Please report normalized growth for the following compound: `CC(C)(C)CC(C)(C)c1ccc(OCCOCC[N+](C)(C)Cc2ccccc2)cc1`
0.988

====

method.description: chemical genetic growth profiling, strain panel (AID 1159580);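 further: tested at 20 µM; growth read once vehicle control cultures reached saturation at 30 °C; 1 = growth at the plate median or of vehicle wells; lower values mean less growth of the strain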
condition.set: S. cerevisiae deletion strains, growth OD, locus YBR279W, strain paf1, hits give low values
The whole screen tested about 5,500 compounds, of which about 2,000 (36%) were called active. Inconclusive results (about 18%) are left out. Some of the results follow.
measure: normalized growth
Just the number, please, no unit after it.

Sample records with normalized growth:
molecule: CC(C)[N+](C)(CCOC(=O)C1c2ccccc2Oc2ccccc21)C(C)C
measure: normalized growth
observed.measurement: 0.99

molecule: CCC(C(=O)O)c1ccccc1 (centres undefined)
measure: normalized growth
observed.measurement: 1

molecule: C=C1CC[C@H](O)C/C1=C/C=C1\CCC[C@]2(C)C([C@H](C)/C=C/[C@H](C)C(C)C)CC[C@@H]12 (some centres undefined)
measure: normalized growth
observed.measurement: 1.01

molecule: COc1cccc([C@]2(O)CCCC[C@H]2CN(C)C)c1
measure: normalized growth
observed.measurement: 0.975

Please indicate normalized growth recorded for `NC(=O)N1c2ccccc2CC(=O)c2ccccc21`
0.99

Indicate its recorded normalized growth; the molecule in question is `COc1ccc2cc1Oc1ccc(cc1)C[C@H]1c3c(cc4c(c3Oc3cc5c(cc3OC)CCN(C)[C@@H]5C2)OCO4)CCN1C`
0.992

For the molecule CC1(C)C2CC[C@]3(C)C(C(=O)C=C4[C@@H]5C[C@@](C)(C(=O)O)CC[C@]5(C)CC[C@]43C)[C@@]2(C)CC[C@@H]1OC(=O)CCC(=O)O (some centres undefined) , give its measured normalized growth value.
0.976

Please list normalized growth recorded for the molecule `CC(=O)OCC(CCn1cnc2cnc(N)nc21)COC(C)=O`
0.986

Please indicate normalized growth recorded for `C[C@@H](N)CO`
0.987

====

method.description: chemical genetic growth profiling, strain panel (AID 1159580);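 further: tested at 20 µM; growth read once vehicle control cultures reached saturation at 30 °C; 1 = growth at the plate median or of vehicle wells; lower values mean less growth of the strain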
condition.set: S. cerevisiae deletion strains, growth OD, locus YOL012C, strain htz1
The campaign covered roughly 5,500 compounds. About 2,000 (36%) were called active. Inconclusive results (about 18%) are left out. Rule as the data show it: active = normalized growth mostly below about 0.91 (no sharp cut-off); inconclusive = no clear call, values can overlap the other calls; inactive = mostly above about 0.92. Some of the results follow.
Pick from active, inactive when you respond.

Known results for compounds:
compound: O=[N+]([O-])O[C@H]1CO[C@H]2[C@@H]1OC[C@H]2O[N+](=O)[O-]
discrete.label: inactive

compound: COc1cc(OC)c2c(c1)OC(c1ccc(OC)c(OC)c1)C(O)C2 (stereo unspecified)
discrete.label: inactive

compound: COC(=O)C1[C@H]2C[C@H]3c4[nH]c5ccccc5c4CCN3C[C@@H]2CC[C@@H]1O (stereo partly specified)
discrete.label: inactive

compound: CO[C@H]1C[C@H](O[C@H]2[C@H](C)[C@@H](OC3O[C@H](C)C[C@H](N(C)C)[C@H]3O)[C@@H](C)C[C@]3(CO3)C(=O)[C@H](C)[C@@H](O)[C@@H](C)[C@@H](C)OC(=O)[C@@H]2C)O[C@@H](C)[C@@H]1O (stereo partly specified)
discrete.label: inactive

compound: CC(=C(CCOP(=O)(O)O)SC(=O)c1ccccc1)N(C=O)Cc1cnc(C)nc1N
discrete.label: inactive

Look up the recorded call for `CCCCOc1ccc(C(=O)CCN2CCCCC2)cc1` in this test.
inactive

# lookup: test call for `NC(N)=NOCC[C@H](N)C(=O)O`
inactive

====

Quick reference for normalized growth among some compounds
method.description: chemical genetic growth profiling, strain panel (AID 1159580);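 further: tested at 20 µM; growth read once vehicle control cultures reached saturation at 30 °C; 1 = growth at the plate median or of vehicle wells; lower values mean less growth of the strain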
condition.set: S. cerevisiae deletion strains, growth OD, locus YPL241C, strain CIN2, hits give low values
Among all 5,500 compounds or so, about 2,000 (36%) were called active. Another 18% or so got no clear call; they are omitted. This is one part of the list.
Just the number, please.

compound: CN1C2CC3C[C@H]1C(O3)C2O (stereo partly drawn)
observed.measurement: 1.01
--
compound: CC1(C)/C(=N/OC(=O)c2cccc(C(F)(F)F)c2)[C@]2(C)CCC1C2
observed.measurement: 1.01

Given the compound `C[N+](C)(C)CC(=O)[O-]` , write its reported normalized growth.
0.999

Supply reported normalized growth belonging to this compound: `COC(=O)c1c(Cl)c(Cl)c(C(=O)OC)c(Cl)c1Cl`
0.99

Look up and state reported normalized growth for `COC(=O)c1c(C)[nH]c(C)c1C(=O)c1ccccc1Cc1ccccc1`
1

Fill in normalized growth for record `CCCCCCCc1c(O)c2ccccc2[nH]c1=O`
1.02

Item `COC(=O)COc1cc(Cl)c(Cl)cc1Cl` : provide normalized growth
0.972

Check the records and state normalized growth for `O=c1[nH]c2cccnc2[nH]c1=O`
1.01

Sourced from PubChem BioAssay AID1159580
